Known growth of a selection of molecules
Test system: HOP-62 NSCLC
assayOverview: NCI-60 one-dose screen, 48 h (100 = growth as untreated, 0 = no growth, -100 = all killed)
cond: 10 µM unless noted
This is part of a sample that, as a whole, favours compounds with a hit. Of some 83,000 tested, about 20% had one in any assay.
quantity: growth (%)

> print(dat)
                                 smilesrepr  quantity  numericvalue
1  COc1ccc(-c2nc(/C=C3\SC(=NCc4ccccc4)NC3=O)c3ccccn23)cc1    growth         -50.7
2     N=C(N)c1ccc(-c2ccc(-c3ccc(F)cc3)o2)o1    growth          38.1
3  CCOC(=O)c1c(C)nc2c(c1N)CC(=O)N2Cc1cc(F)cc(Cl)c1    growth          89.7
4  COc1ccc(C(=O)Nc2ncc(Cc3cccc(Cl)c3)s2)cc1OC    growth          4.67
5  COC(=O)c1c2c(c(C)[n+]([O-])c1C)C(=O)C=C(NCc1ccc(Br)cc1)C2=O    growth         -77.2

* * *

Tested on: SW-620 colon
assayOverview: NCI-60 one-dose screen, 48 h
cond: 10 µM unless noted
Compounds without any hit were thinned out: in the full panel of roughly 83,000, 20% have a hit. Activity calls are given as the source filed them. Rule for the calls: active = growth percent below 10; inactive = the rest.
Possible outcomes: yes for active, no for inactive

> print(dat)
                                    compound  cat
 1         C/C(Nc1ccc(Cl)c(Cl)c1)=C1\CCOC1=O   no
 2  Cc1nnc(NC(=O)c2nc(S(=O)(=O)Cc3ccc(F)cc3)ncc2Cl)s1  yes
 3  C1=CN2CC(c3ccccc3)=NNC2c2ccccc21 (stereo not given)   no
 4  CCNc1nc(-c2ccc(Cl)c(OC)c2)c(-c2ccnc(NCCCNS(=O)(=O)c3ccc(Cl)cc3)n2)s1   no
 5     O=C1/C(=C/c2cccs2)SC(=S)N1CCCN1CCOCC1   no
 6  CN(C)C1CCN(Cc2ccc(NC(=O)c3cncc(C#Cc4cnc(N)c5ncccc45)c3)cc2C(F)(F)F)CC1   no
 7  CNC(=O)c1cc(Oc2ccc3nc(NC(C)=O)sc3c2)ccn1   no
 8  Oc1ccc(CCn2c(O)c(/C=C3\CN=c4ccccc4=N3)sc2=S)cc1   no
 9  c1cc2[nH]ncc2cc1-c1nc2ccc3[nH]ncc3c2c2c1CCCC2  yes
10  O=[N+]([O-])C1C(c2ccccc2)C12c1ccccc1-c1ccccc12 (stereo not given)  yes

* * *

Known growth of a selection of compounds
Test system: HCT-15 colon
assayOverview: NCI-60 one-dose screen, 48 h (100 = growth as untreated, 0 = no growth, -100 = all killed)
cond: 10 µM unless noted
The panel holds about 83,000 compounds, 20% with a hit somewhere; the sample as a whole holds those more often.
quantity: growth (%)

> print(dat)
                                   compound  quantity  unitstring  numericvalue
1  CCCCCCCCCCCCCCCCCCOc1ccccc1CC(=O)OCC[N+]1(C)CCCC1    growth           %          68.1
2  CCOC(=O)c1cc(-c2ccc([N+](=O)[O-])cc2)n(-c2ccc(C(=O)O)c(O)c2)c1C    growth           %          50.2
3  C#Cc1cccc(Nc2ncnc3ccc(-c4cncc(NS(C)(=O)=O)c4)cc23)c1    growth           %          55.9
4  c1cnc2[nH]cc(-c3csc(-c4cn(CCCN5CCOCC5)c5ccccc45)n3)c2c1    growth           %            14
5  O=C(CCCCC1CCSS1)Nc1ncnc2n[nH]c(-c3ccc(Oc4ccccc4)cc3)c12 (centres undefined)    growth           %          95.8
6  COc1ccccc1NC(=O)Cn1cc(CN2CCN(c3ccnc4cc(Cl)ccc34)CC2)nn1    growth           %          91.8
7  COc1cc(-c2nc(SCC(C)C)nc(Nc3cccc4ccccc34)c2C#N)cc(OC)c1OC    growth           %          74.3
8  O=C1c2cc(Cl)ccc2S(=O)(=O)c2c(NCCCNCCO)nc3ccccc3c21    growth           %         -65.4
9  Cc1c(-c2nc3ccc(F)cc3c(=O)[nH]2)c2ccccc2n1C    growth           %          22.9
